molecular target: AGO2 F182del (Homo sapiens, UniProt Q9UKV8 1-859, S387D;S824A;S828D;S831D;S834A;del182-182); assay: RNA Bind-n-Seq (nitrocellulose filter binding and sequencing); miR-122 guide loaded in AGO2; 60 min incubation; 30 mM Tris pH 8.0, 100 mM potassium acetate, 2 mM magnesium acetate, 0.5 mM TCEP, 0.005% NP-40, 0.01 mg/ml yeast tRNA; 3 nM AGO2-miR-122, 100 nM RNA library; 60; high values mean tight binding; settings: protein: recombinant; tags: His6 (N-terminal, pFastBac HTA)
Sequence (Q9UKV8 other isoform, or with tags, fused parts or gaps S387D;S824A;S828D;S831D;S834A;del182-182): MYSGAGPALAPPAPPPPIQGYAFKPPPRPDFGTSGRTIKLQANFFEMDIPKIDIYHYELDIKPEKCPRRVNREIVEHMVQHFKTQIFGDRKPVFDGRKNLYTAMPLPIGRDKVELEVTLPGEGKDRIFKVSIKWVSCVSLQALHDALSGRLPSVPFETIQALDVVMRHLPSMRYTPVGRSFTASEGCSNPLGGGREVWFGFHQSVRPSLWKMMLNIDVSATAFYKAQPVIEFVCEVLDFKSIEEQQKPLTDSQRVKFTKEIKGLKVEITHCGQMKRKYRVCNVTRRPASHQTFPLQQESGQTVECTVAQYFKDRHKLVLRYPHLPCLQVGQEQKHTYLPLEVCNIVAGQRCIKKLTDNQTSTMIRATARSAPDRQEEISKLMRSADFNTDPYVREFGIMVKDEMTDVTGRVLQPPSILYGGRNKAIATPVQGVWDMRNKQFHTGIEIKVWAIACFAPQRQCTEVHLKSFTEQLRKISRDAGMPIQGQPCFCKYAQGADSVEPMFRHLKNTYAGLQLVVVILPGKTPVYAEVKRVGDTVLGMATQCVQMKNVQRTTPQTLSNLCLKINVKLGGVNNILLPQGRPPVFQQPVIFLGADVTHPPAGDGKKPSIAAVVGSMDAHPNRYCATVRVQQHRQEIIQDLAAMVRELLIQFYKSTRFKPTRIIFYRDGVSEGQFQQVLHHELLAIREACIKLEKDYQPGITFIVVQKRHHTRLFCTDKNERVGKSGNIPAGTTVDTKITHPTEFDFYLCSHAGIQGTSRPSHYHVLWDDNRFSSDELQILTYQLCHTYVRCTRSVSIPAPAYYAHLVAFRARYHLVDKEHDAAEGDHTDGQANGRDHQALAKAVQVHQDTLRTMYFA
MEASURED_METRIC: binding signal

- ATGCTCCG (ssRNA, constant regions annealed to DNA blockers; guide miR-122 5' phosphate) RNA 1: GAGUUCUACAGUCCGACGAUCCCAACAUGCUCCGCACCUGGAAUUCUCGGGUGCCAA RNA 2: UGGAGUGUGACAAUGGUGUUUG DNA 1: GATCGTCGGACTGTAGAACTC DNA 2: TTGGCACCCGAGAATTCCA: 1.55 fold enrichment over input

Turning to the following binder.
binding signal recorded for this binder, GTGCCCCA (ssRNA, constant regions annealed to DNA blockers; guide miR-122 5' phosphate) RNA 1: GAGUUCUACAGUCCGACGAUCCCAACGUGCCCCACACCUGGAAUUCUCGGGUGCCAA RNA 2: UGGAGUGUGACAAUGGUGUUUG DNA 1: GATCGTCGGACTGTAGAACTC DNA 2: TTGGCACCCGAGAATTCCA , is 0.158 fold enrichment over input

Where do the numbers come from? From paper PMC12529666.
